# target: NR1/NR2C (Homo sapiens, UniProt Q05586+Q14957)
# Construct: expressed in transfected cells; host or cells: Xenopus laevis oocytes
# Sequence (Q14957 20-1233, species assumed, other chains not shown): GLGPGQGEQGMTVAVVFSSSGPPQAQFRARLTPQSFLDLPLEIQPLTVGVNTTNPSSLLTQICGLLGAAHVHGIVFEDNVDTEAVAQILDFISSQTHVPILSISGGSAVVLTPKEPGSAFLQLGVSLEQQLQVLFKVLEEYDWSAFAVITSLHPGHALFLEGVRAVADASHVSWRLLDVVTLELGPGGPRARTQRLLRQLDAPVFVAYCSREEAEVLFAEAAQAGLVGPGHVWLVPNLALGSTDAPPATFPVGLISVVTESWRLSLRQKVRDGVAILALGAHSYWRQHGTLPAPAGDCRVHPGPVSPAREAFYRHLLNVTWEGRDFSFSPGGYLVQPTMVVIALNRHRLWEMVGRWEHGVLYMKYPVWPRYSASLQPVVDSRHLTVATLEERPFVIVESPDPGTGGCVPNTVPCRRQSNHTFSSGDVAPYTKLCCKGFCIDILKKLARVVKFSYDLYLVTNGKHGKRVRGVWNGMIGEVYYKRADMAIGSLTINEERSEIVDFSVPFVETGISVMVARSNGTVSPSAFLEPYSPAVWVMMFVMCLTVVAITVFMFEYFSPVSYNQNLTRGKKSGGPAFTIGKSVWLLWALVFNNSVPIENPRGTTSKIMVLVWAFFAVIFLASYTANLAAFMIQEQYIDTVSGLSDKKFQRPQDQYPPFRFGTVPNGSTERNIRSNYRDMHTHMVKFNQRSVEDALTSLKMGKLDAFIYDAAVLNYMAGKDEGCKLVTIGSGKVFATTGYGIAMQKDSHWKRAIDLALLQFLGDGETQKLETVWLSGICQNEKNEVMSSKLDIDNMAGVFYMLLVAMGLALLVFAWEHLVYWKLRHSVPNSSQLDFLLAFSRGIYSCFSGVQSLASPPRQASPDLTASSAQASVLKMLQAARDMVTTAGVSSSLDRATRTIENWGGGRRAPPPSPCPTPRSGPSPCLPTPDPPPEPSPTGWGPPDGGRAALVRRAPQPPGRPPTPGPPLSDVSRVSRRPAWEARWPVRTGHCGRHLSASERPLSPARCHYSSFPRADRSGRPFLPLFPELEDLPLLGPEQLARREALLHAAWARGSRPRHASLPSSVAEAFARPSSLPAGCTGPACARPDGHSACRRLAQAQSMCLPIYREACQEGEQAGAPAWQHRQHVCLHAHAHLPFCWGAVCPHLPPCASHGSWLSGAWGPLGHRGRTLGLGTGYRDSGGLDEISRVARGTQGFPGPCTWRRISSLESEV
# test: Two electrode voltage clamp, Xenopus laevis oocytes expressing NR1/NR2C
# Format: cell-based
# conditions: maximal effect of fit; read-out: 2C Max
Measured Emax accompanies every entry in the list below.
measured_endpoint: Emax (%)

>>> reported("COc1ccc(OCC2c3cc(OC)c(OC)cc3CCN2C(=O)c2ccc(F)c(Cl)c2)cc1 (stereo not shown)")
226
>>> reported("COc1ccc(OCC2c3cc(OC)c(OC)cc3CCN2C(=O)c2ccccc2)cc1 (stereo not shown)")
145
>>> reported("COc1ccc(OCC2c3cc(OC)c(OC)cc3CCN2C(=O)c2cccc([N+](=O)[O-])c2)cc1 (stereo not shown)")
267
>>> reported("COc1ccc(OCC2c3ccc(OC)cc3CCN2C(=O)c2cccc(Br)c2)cc1 (stereo not shown)")
192

---

# target: NR1/NR2B (Homo sapiens, UniProt Q05586+Q13224)
# Construct: expressed in transfected cells; host or cells: Xenopus laevis oocytes
# Sequence (Q13224 27-1484, species assumed, other chains not shown): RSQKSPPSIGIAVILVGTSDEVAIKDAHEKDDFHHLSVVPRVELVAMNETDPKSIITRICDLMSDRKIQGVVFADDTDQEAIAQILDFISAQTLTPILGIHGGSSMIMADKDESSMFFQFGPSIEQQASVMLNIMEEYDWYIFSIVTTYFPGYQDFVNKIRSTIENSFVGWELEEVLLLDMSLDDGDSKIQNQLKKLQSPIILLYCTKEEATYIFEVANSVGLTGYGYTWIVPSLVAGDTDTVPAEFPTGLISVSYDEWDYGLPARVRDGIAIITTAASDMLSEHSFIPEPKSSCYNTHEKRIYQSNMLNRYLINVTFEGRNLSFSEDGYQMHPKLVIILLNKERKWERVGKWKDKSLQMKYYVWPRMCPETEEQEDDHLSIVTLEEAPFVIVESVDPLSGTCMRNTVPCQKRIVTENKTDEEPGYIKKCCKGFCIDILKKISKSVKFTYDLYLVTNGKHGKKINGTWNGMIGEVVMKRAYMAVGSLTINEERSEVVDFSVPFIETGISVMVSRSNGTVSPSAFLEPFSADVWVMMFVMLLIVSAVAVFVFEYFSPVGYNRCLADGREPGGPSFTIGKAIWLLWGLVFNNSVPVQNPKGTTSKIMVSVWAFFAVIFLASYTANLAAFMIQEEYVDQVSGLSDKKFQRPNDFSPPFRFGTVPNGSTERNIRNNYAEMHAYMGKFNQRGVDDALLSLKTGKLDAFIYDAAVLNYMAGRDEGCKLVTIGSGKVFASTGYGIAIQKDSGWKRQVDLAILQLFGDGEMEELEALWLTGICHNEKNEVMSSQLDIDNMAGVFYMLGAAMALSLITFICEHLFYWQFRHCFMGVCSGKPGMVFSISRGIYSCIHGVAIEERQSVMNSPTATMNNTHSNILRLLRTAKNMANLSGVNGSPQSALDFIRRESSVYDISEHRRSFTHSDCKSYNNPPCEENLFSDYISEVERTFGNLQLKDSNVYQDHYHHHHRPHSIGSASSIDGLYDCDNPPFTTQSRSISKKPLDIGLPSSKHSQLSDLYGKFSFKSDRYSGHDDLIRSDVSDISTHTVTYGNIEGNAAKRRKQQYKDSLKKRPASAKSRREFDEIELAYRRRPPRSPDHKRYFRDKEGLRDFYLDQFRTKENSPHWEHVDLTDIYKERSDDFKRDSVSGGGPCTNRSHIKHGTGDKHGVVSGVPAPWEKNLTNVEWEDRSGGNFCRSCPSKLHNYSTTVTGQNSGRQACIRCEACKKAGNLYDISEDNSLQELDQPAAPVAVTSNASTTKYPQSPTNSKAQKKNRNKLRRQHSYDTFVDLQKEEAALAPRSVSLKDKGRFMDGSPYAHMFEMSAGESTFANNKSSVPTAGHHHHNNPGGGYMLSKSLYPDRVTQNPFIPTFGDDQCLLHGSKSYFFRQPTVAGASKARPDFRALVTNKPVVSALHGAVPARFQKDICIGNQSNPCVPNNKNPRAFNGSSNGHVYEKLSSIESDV
# test: Two electrode voltage clamp, Xenopus laevis oocytes expressing NR1/NR2B
# Format: cell-based
# conditions: at 100 μM; read-out: 2B percent effect at the maximum tested concentration
Kindly note that classification relies on activity at 100 µM with these boundaries: interval 1 = under 80%, interval 2 = from 80% up to 90%, interval 3 = 90% and over

>>> category_label("Cc1cc(C(=O)O)c(NC(=O)c2ccccc2)s1")
"interval 3"
>>> category_label("COc1ccc(OCC2c3cc(OC)c(OC)cc3CCN2C(=O)c2cccc(OC)c2)cc1 (stereo not drawn)")
"interval 1"
>>> category_label("COc1ccc(NC(O)C2CN(C)C(=O)c3cc(OC)c(OC)cc32)c(OC)c1 (stereo not drawn)")
"interval 2"
>>> category_label("O=C(O)C1=C(NC(=O)c2ccc(Br)cc2)SC2CCCC12 (stereo not drawn)")
"interval 1"
>>> category_label("COc1ccc(OCC2c3cc(OC)c(OC)cc3CCN2C(=O)c2cccc(C(F)(F)F)c2)cc1 (stereo not drawn)")
"interval 2"
>>> category_label("COc1ccc(OCC2c3cc(OC)c(OC)cc3CCN2C(=O)c2ccc(C)cc2)cc1 (stereo not drawn)")
"interval 1"
>>> category_label("COc1ccc(OCC2c3cc(OC)c(OC)cc3CCN2C(=O)c2ccc(OC)cc2)cc1 (stereo not drawn)")
"interval 1"
>>> category_label("CC(C)(C)c1ccc(C(=O)Nc2sc3c(c2C(=O)O)CCC3)cc1")
"interval 3"
>>> category_label("Cc1sc(NC(=O)c2ccc(C(C)(C)C)cc2)c(C(N)=O)c1C")
"interval 3"
>>> category_label("COc1ccc(OCC2c3cc(OC)c(OC)cc3CCN2S(=O)(=O)c2ccccc2)cc1 (stereo not drawn)")
"interval 1"
>>> category_label("Cc1ccnc(NC(=O)c2ccc(C(C)(C)C)cc2)c1")
"interval 3"
>>> category_label("COc1ccc(OCC2c3ccc(OC)cc3CCN2C(=O)c2cccc(Cl)c2)cc1 (stereo not drawn)")
"interval 1"
>>> category_label("Cc1ccc(C(=O)Nc2sc(C)cc2C(=O)O)cc1")
"interval 3"

---

# target: NR1/NR2D (Homo sapiens, UniProt O15399+Q05586)
# Sequence (O15399 28-1336, species assumed, other chains not shown): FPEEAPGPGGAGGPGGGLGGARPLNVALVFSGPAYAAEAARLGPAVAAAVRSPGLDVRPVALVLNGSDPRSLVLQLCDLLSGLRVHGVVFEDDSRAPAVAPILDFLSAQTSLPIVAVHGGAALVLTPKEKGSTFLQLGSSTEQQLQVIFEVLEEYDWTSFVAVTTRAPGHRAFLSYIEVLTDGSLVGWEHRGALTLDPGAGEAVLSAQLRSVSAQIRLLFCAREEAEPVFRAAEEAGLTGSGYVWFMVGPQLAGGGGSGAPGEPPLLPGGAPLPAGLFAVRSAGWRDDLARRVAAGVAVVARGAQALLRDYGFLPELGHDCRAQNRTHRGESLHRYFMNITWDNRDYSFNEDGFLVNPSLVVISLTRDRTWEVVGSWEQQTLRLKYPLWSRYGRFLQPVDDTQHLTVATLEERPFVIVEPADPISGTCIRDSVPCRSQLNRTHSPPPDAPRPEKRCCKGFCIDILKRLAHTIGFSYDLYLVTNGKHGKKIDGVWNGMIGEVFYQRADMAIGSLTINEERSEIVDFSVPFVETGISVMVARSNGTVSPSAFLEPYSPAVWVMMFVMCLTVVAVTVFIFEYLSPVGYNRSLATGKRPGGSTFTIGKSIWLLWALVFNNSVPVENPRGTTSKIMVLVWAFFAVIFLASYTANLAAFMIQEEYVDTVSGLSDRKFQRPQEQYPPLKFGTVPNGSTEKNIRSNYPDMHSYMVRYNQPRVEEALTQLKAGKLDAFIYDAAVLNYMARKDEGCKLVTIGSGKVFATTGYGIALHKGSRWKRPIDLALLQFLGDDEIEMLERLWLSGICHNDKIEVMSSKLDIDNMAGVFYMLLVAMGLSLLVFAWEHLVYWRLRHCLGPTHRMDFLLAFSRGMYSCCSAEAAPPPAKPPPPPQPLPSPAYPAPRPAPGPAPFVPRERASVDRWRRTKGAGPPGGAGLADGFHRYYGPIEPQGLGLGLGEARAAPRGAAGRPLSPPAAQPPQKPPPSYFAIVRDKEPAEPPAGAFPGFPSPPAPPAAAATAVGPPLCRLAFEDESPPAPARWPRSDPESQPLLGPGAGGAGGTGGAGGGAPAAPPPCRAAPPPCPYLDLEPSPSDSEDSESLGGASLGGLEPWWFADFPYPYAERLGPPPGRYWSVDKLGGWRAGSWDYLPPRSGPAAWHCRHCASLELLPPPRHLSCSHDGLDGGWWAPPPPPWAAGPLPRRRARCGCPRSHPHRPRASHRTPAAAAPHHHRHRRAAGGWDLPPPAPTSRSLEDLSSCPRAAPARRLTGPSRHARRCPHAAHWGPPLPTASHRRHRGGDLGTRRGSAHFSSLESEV
# test: Two electrode voltage clamp, Xenopus laevis oocytes expressing NR1/NR2D
# conditions: read-out: 2D Max
measured_endpoint: Emax (%)

>>> reported("COc1ccc(OCC2c3cc(OC)c(OC)cc3CCN2C(=O)c2cccc(C(F)(F)F)c2)cc1 (stereo not shown) [compound 1426]")
204
>>> reported("COc1ccc(OCC2c3c(cc(OC)cc3OC)CCN2C(=O)c2cccc(Cl)c2)cc1 (stereo not shown) [1180-20]")
271
>>> reported("COc1ccc(OCC2c3cc(OC)c(OC)cc3CCN2C(=O)c2cccc(C)c2)cc1 (stereo not shown) [compound 1425]")
172
>>> reported("COc1ccc(OCC2c3cc(OC)c(OC)cc3CCN2C(=O)c2cccc([N+](=O)[O-])c2)cc1 (stereo not shown) [1180-16]")
297
